study-target: Gamma-aminobutyric acid receptor subunit alpha-1/beta-3 (Rattus norvegicus) (UniProt P62813+P63079)
assay-remarks: Positive allosteric modulator activity at rat alpha1beta3 GABA-A receptor expressed in Xenopus laevis oocytes assessed as increase in GABA-induced chloride current at 10 uM co-applied with GABA at concentration of EC3-5 at -60 mV holding potential by two-microelectrode voltage clamp method relative to control
Format: cell-based
reported-endpoint: Efficacy (%)
Dear colleague, please return just the value in %, with no unit written.

Hello, please tell me recorded Efficacy for this one: COc1ccc(-n2nc3c4cc(Cl)ccc4[nH]cc-3c2=O)cc1
1060

* * *

study-target: Gamma-aminobutyric acid receptor subunit alpha-1/beta-3 (Rattus norvegicus) (UniProt P62813+P63079)
assay-remarks: Positive allosteric modulator activity at rat alpha1beta3 GABA-A receptor expressed in Xenopus laevis oocytes assessed as increase in GABA-induced chloride current at 30 uM co-applied with GABA at concentration of EC3-5 at -60 mV holding potential by two-microelectrode voltage clamp method relative to control
Format: cell-based
Measured Efficacy of individual entries
Numbers only; they are read as %.

smiles-data: O=C(O)c1[nH]c2ccc(Cl)cc2c1/N=N/c1ccc(Br)cc1
Efficacy (%): 3000

smiles-data: COc1ccc(/N=N/c2c(C(=O)O)[nH]c3ccc(Cl)cc23)cc1
Efficacy (%): 2000

smiles-data: COc1ccc2[nH]c(C(=O)O)c(/N=N/c3ccc(Br)cc3)c2c1
Efficacy (%): 830

Return value of Efficacy for input COc1ccc2[nH]c(C(=O)O)c(/N=N/c3ccc(C)cc3)c2c1 , no commentary.
400

Note Efficacy for the molecule shown: Cc1ccc(/N=N/c2c(C(=O)O)[nH]c3ccc(Cl)cc23)cc1
1800

For the molecule COc1ccc(/N=N/c2c(C(=O)O)[nH]c3ccccc23)cc1 , report Efficacy.
200

Recall and state the measured Efficacy for COc1ccc(/N=N/c2c(C(=O)O)[nH]c3ccc(OC)cc23)cc1 .
300

* * *

study-target: Gamma-aminobutyric acid receptor subunit alpha-1/beta-3 (Rattus norvegicus) (UniProt P62813+P63079)
assay-remarks: Positive allosteric modulator activity at rat alpha1beta3 GABA-A receptor expressed in Xenopus laevis oocytes assessed as increase in GABA-induced chloride current at 10 uM co-applied with GABA at concentration of EC3-5 at -60 mV holding potential by two-microelectrode voltage clamp method relative to control
Type: cell-based
reported-endpoint: Efficacy (%)
Unit % implied. Number only.

// worked examples, Efficacy included
smiles-data: COc1ccc(/N=N/c2c(C(=O)O)[nH]c3ccc(OC)cc23)cc1
measurement-unit: %
Efficacy: 196

smiles-data: COc1ccc2[nH]cc3c(=O)n(-c4ccc(C)cc4)nc-3c2c1
measurement-unit: %
Efficacy: 719

smiles-data: COc1ccc(-n2nc3c4cc(OC)ccc4[nH]cc-3c2=O)cc1
measurement-unit: %
Efficacy: 1120

smiles-data: COc1ccc2[nH]c(C(=O)O)c(/N=N/c3ccc(C)cc3)c2c1
measurement-unit: %
Efficacy: 167

smiles-data: Cc1ccc(/N=N/c2c(C(=O)O)[nH]c3ccc(Cl)cc23)cc1
measurement-unit: %
Efficacy: 707

smiles-data: COc1ccc(/N=N/c2c(C(=O)O)[nH]c3ccc(Cl)cc23)cc1
measurement-unit: %
Efficacy: 919

Consider the additional compound presented here.
Output Efficacy of Cc1ccc(-n2nc3c4cc(Cl)ccc4[nH]cc-3c2=O)cc1
372
